- TARGET OR SYSTEM: Glutamate NMDA receptor
- PROCEDURE SUMMARY: Inhibitory activity against [3H]glycine binding site of N-methyl-D-aspartate glutamate receptor 1 in rat cortical membranes
- Format: cell membranes, Membrane
OBSERVATION TYPE: IC50 (µM)
Express it in µM; write the number only.

* O=c1[nH]c2cc(Cl)c(Cl)cc2cc1P(=O)(O)O | 111
* O=P(O)(O)c1cc2c(Cl)cc(Cl)cc2nc1O | 5.1
* O=C(O)c1cc2cc([N+](=O)[O-])c([N+](=O)[O-])cc2nc1O | 1.8

Continue with the compound presented below.
I have this compound here, O=[N+]([O-])c1cc2cc(NS(=O)(=O)C(F)(F)F)c(O)nc2cc1[N+](=O)[O-] , and I need its recorded IC50.
1.38
